All values here come from the supplement of paper PMC10338343.

tested on: EfPiwi piRISC loaded with piRNA #1 (26 nt); test: pre-steady-state target cleavage rate (min^-1); auxiliary factor: 500 nM Ephydatia muelleri Gtsf1; guide: piRNA #1 5'p-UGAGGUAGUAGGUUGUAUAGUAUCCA; MIWI and MILI are mouse PIWI proteins and EfPiwi is from a freshwater sponge; tags in brackets are library labels; higher = faster piRNA-guided slicing of the target
measured metric: pre-steady-state target cleavage rate

| input sequence | measured target | assay value |
| --- | --- | --- |
| GGAGACGAUACUAUACAAGCUACUACCUCA | EfPiwi piRISC loaded with piRNA #1 (26 nt) | 0.00854 |
| GGAGAGGAUACUAUACAUCCUACUUCCUCA | EfPiwi piRISC loaded with piRNA #1 (26 nt) | 0.00317 |
| GGAGACCAUUCUAUACAACCUACUACGUCA | EfPiwi piRISC loaded with piRNA #1 (26 nt) | 0.0027 |
| GGAGACCAAACUAUACUACCUACUACCUCA | EfPiwi piRISC loaded with piRNA #1 (26 nt) | 0.00362 |
| GGAGACCUAACUAUACAACCUACUACCUGA | EfPiwi piRISC loaded with piRNA #1 (26 nt) | 0.00393 |
| GGAGUGCUAACUAUACAACCUACUACCUCA | EfPiwi piRISC loaded with piRNA #1 (26 nt) | 0.0117 |
| GGAGACGAUACUAUAUAACCUACUACCUCA | EfPiwi piRISC loaded with piRNA #1 (26 nt) | 0.0091 |
| GGAGACCUUAACUAUACAACCUACUACCUCA | EfPiwi piRISC loaded with piRNA #1 (26 nt) | 0.113 |
| GGAGACCUUACUAUACAACCUACUACGUCA | EfPiwi piRISC loaded with piRNA #1 (26 nt) | 0.00584 |
| GGAGAGGAUACUAUACAAGCUACUUCCUCA | EfPiwi piRISC loaded with piRNA #1 (26 nt) | 0.00375 |
| GGAGACGAUAGUAUACAACCUACUACCUGA | EfPiwi piRISC loaded with piRNA #1 (26 nt) | 0.0032 |
| GGAGACGAUACUAUUCAACCUACUACCUCA | EfPiwi piRISC loaded with piRNA #1 (26 nt) | 0.00923 |
| GGAGUGGAUACUAUACAACCUAGUUCCUCA | EfPiwi piRISC loaded with piRNA #1 (26 nt) | 0.00239 |
| GGAGUGGAUACUAUACUACCUACUUCCUCA | EfPiwi piRISC loaded with piRNA #1 (26 nt) | 0.00222 |
| GGAGAGGCAUACUAUACAACCUACUACCUCA | EfPiwi piRISC loaded with piRNA #1 (26 nt) | 0.0477 |
| GGAGACCAUCCUAUACAACCUACUACCUCA | EfPiwi piRISC loaded with piRNA #1 (26 nt) | 0.01 |
